Let's look at some molecules and their measured Ki.
Molecular target: cloned human μ opioid receptor (Homo sapiens, UniProt P35372)
Construct: expressed in transfected cells
Sequence (P35372 whole entry): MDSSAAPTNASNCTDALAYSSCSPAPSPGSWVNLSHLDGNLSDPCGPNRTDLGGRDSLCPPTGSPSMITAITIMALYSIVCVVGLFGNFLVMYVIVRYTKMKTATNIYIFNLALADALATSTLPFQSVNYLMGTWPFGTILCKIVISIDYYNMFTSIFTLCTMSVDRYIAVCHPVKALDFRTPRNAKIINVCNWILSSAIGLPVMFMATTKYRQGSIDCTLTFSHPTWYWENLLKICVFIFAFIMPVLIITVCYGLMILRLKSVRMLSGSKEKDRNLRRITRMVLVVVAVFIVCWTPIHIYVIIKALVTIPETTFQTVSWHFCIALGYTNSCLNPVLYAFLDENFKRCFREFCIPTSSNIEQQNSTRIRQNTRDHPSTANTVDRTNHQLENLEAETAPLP
Test: [3H]diprenorphine binding to cloned human μ opioid receptor
Details: inhibition of [3H]diprenorphine binding, cloned human μ receptor; read-out: Ki(μ)
Experimental: IC50 values were obtained by nonlinear analysis of the data using GraphPad Prism version 3.00 for Windows (GraphPad Software, San Diego). Ki values were obtained by Cheng-Prusoff corrections of IC50 values. […] To determine the equilibrium dissociation constant for the inhibitors (Ki), radioligand bound (cpm) in the presence of various concentrations of test compounds was measured. […]
Structures can show the parent of a compound that is named as a salt.

Guide cases for Ki, answers given:
Query: What does the data say about its Ki? Entry: CC(C)S(=O)(=O)NCc1ccc(CC(=O)N(C)[C@H](CN2CC[C@H](O)C2)c2ccccc2)cc1.Cl [Example 15, hydrochloride]
Result: 1100 nM

Query: # repeat for CN(C(=O)Cc1ccc(CNS(=O)(=O)c2ccccc2)cc1)[C@H](CN1CC[C@H](O)C1)c1ccccc1 [Example 18, hydrochloride]
Result: 880 nM

Query: # repeat for CN(C(=O)Cc1ccc(CCCNS(C)(=O)=O)cc1)[C@H](CN1CC[C@H](O)C1)c1ccccc1.Cl [Example 27, hydrochloride]
Result: 320 nM

Now for another entry.
Query: What does the data say about its Ki? Entry: CN(C(=O)Cc1ccc(CNS(=O)(=O)Cc2ccccc2)cc1)[C@H](CN1CC[C@H](O)C1)c1ccccc1 [Example 21, hydrochloride]
Result: 480 nM
